System: HCC-2998 colon
ASSAY: NCI-60 one-dose screen, 48 h
EXPERIMENTAL_CONDITIONS: 10 µM
Compounds without any hit were thinned out: in the full panel of roughly 83,000, 20% have a hit. Active and inactive are the calls of the source. The calls were made as follows: active = growth percent below 10; inactive = the rest.
Could you please pick one outcome from this set? class 1 (active), class 0 (inactive)

>  <COMPOUND>
CC(=O)C1=C(C)NC(SCC(=O)Nc2ccc(S(=O)(=O)Nc3cc(C)on3)cc2)=NC1c1ccccc1 (stereo not given)

>  <DISCRETE_LABEL>
class 0

$$$$
>  <COMPOUND>
CCCCSc1nc(Nc2ccc(/C(C)=N/NC(N)=S)cc2)c(C#N)c(-c2ccc(OC)cc2)n1

>  <DISCRETE_LABEL>
class 0

$$$$

// query Please share the test call associated with `CN1CCN(Cc2ccc(C(=O)Nc3cccc(Nc4ccc5c(O)cccc5n4)c3)cc2C(F)(F)F)CC1` .
// result class 1

// query Entry to check: `COc1ccc(C(=O)/C=C/c2ccc(Cl)c(C(F)(F)F)c2)cc1S(N)(=O)=O`
// result class 1

// query Entry to check: `Cc1cc(C)nc(SCC(=O)Nc2ccc(S(N)(=O)=O)cc2)n1`
// result class 0

---

Test system: NCI-H322M lung
ASSAY: NCI-60 one-dose screen, 48 h (100 = growth as untreated, 0 = no growth, -100 = all killed)
EXPERIMENTAL_CONDITIONS: 10 µM
About 83,000 compounds went through this panel and 20% of them were active in at least one assay; those are over-represented in the sample as a whole. Activity calls are given as the source filed them. How the source made its calls: active means growth percent below 10; inactive means the rest.
VALUE_TYPE: growth

// query Name the recorded growth for O=C1CCC(N2Cc3c(NCc4ccc(-c5ccccc5)cc4)cccc3C2=O)C(=O)N1 (stereo not given) .
// result 77.2% (inactive)

// query Entry to check: `O=C(Nc1nc2ccc([N+](=O)[O-])cc2s1)Nc1cc(Cl)ccc1I`
// result -9.64% (active)

---

System: OVCAR-3 ovarian
ASSAY: NCI-60 one-dose screen, 48 h
EXPERIMENTAL_CONDITIONS: 10 µM
About 83,000 compounds went through this panel and 20% of them were active in at least one assay; those are over-represented in the sample as a whole. Calls of active or inactive are those of the source. Rule for the calls: active = growth percent below 10; inactive = the rest.
Could you please pick one outcome from this set? active, inactive

Field: example entries. Status: answers known.
>  <CHEMICAL_SMILES>
O=C(Cn1nc(-c2ccccc2)ccc1=O)NNC(=S)NC1CCCCC1

>  <DISCRETE_LABEL>
inactive

$$$$
>  <CHEMICAL_SMILES>
COc1ccc(C(=O)CSc2nnc(-c3c[nH]c4ccccc34)n2-c2ccccc2)cc1

>  <DISCRETE_LABEL>
inactive

$$$$
>  <CHEMICAL_SMILES>
N#Cc1ccc(-c2nn(-c3ccc(C(=O)O)cc3)cc2CNc2cc(Cl)cc(C(F)(F)F)c2)cc1

>  <DISCRETE_LABEL>
inactive

$$$$
>  <CHEMICAL_SMILES>
COc1cc(/C=C/C(=O)c2ccc(S(=O)(=O)NCCNc3nc(Nc4ccc(F)cc4)nc(N(C)C)n3)cc2)cc(OC)c1OC

>  <DISCRETE_LABEL>
active

$$$$

// query Please share the test call associated with `O=C(CSc1nnc(-c2c[nH]c3ccccc23)n1-c1ccccc1)c1ccc(Cl)cc1` .
// result inactive

// query Entry to check: `COc1ccc(-c2ccc(/C=N/NC(=O)c3[nH]c4ccc(Br)cc4c3-c3ccccc3)s2)cc1`
// result inactive

// query Entry to check: `COc1cnc2c(c1)C(=O)c1c-2n(CCCNCCO)c(=O)c2cc(OC)c(OC)cc12`
// result active

// query Entry to check: `CN1CCN(c2ccc(Nc3nc(NCCNC(=O)c4ccc(C(F)(F)F)cc4)c4sccc4n3)cc2)CC1`
// result inactive

// query Entry to check: `CN1CCN(Cc2ccc(C(=O)Nc3cccc(Nc4ccc5c(O)cccc5n4)c3)cc2C(F)(F)F)CC1`
// result active

---

Test system: SR leukemia
ASSAY: NCI-60 one-dose screen, 48 h (100 = growth as untreated, 0 = no growth, -100 = all killed)
EXPERIMENTAL_CONDITIONS: 10 µM
About 83,000 compounds went through this panel and 20% of them were active in at least one assay; those are over-represented in the sample as a whole.
VALUE_TYPE: growth (%)
Express your answer in %, writing the number without its unit.

Use the examples below as a reference point.
>  <MOLECULE>
Clc1cccc(N/N=C/c2c[nH]c3ccccc23)n1

>  <ENDPOINT_VALUE>
13.7

$$$$
>  <MOLECULE>
OCCCNc1oc(-c2ccccc2)nc1[P+](c1ccccc1)(c1ccccc1)c1ccccc1

>  <ENDPOINT_VALUE>
1.71

$$$$
>  <MOLECULE>
O=c1[nH]c2ccc(Cl)cc2cc1CSc1ccc(Nc2nccc(-c3ccc(Cl)cc3)n2)cc1

>  <ENDPOINT_VALUE>
54.2

$$$$
>  <MOLECULE>
COc1cc(-c2nc3cc(Cl)c(Cl)cc3[nH]2)ccc1OCc1nnc(-c2ccc(Br)cc2)o1

>  <ENDPOINT_VALUE>
-34.4

$$$$
>  <MOLECULE>
CSc1nc(-c2cccc(C)c2)c2cc(-c3ccccc3)n(C)c2n1

>  <ENDPOINT_VALUE>
11.7

$$$$

// query Name the recorded growth for `COc1ccc(-c2cc(C(=O)N=Nc3c(O)[nH]c4ccccc34)c3ccccc3n2)cc1` .
// result 22.8

// query Entry to check: CC1=C(c2cc(-c3ccc(Cl)cc3)c(C#N)c(N)n2)C(c2ccccc2)NC(=S)N1 (stereo not given)
// result 2.54

// query Entry to check: `COc1ccc2[nH]c(=O)c(CSc3cccc(N)c3)cc2c1`
// result 39.1

// query Entry to check: `COc1cc(/C=C/C(=O)c2cc(OC)c(OC)c(OC)c2)ccc1Oc1nc(Nc2ccc(F)cc2)nc(N(C)C)n1`
// result -5.9

// query Entry to check: `COc1cc(/C=C/C(=O)c2ccc(C(F)(F)F)cc2)ccc1Oc1nc(Nc2ccc(F)cc2)nc(N(C)C)n1`
// result 30.4

---

Tested on: OVCAR-4 ovarian
ASSAY: NCI-60 one-dose screen, 48 h (100 = growth as untreated, 0 = no growth, -100 = all killed)
EXPERIMENTAL_CONDITIONS: 10 µM
This is part of a sample that, as a whole, favours compounds with a hit. Of some 83,000 tested, about 20% had one in any assay.
Simple rule here: growth less than 40% is yes (1), otherwise no (0).

Field: example entries. Status: answers known.
>  <COMPOUND>
CN1CCN(c2ccc(Nc3nc(N4CCN(S(=O)(=O)c5ccc(F)cc5)CC4)c4sccc4n3)cc2)CC1

>  <DISCRETE_LABEL>
yes (1)

$$$$
>  <COMPOUND>
COc1ccc(CN2[C@@H](C(=O)NCc3ccc(C(=O)NO)cc3)Cc3c([nH]c4ccccc34)[C@@H]2C2CC2)cc1

>  <DISCRETE_LABEL>
yes (1)

$$$$
>  <COMPOUND>
O=C(Nc1ccc(Cl)c(C(F)(F)F)c1)c1cncc(C#Cc2cnc3ccc(N4CCOCC4)nn23)c1

>  <DISCRETE_LABEL>
yes (1)

$$$$
>  <COMPOUND>
COc1ccc(C2N(c3ccc(Br)cc3)N=C(C(C)=O)N2[C@H]2[C@H](OC(C)=O)O[C@H](COC(C)=O)[C@@H](OC(C)=O)[C@@H]2OC(C)=O)cc1 (stereo partly drawn)

>  <DISCRETE_LABEL>
no (0)

$$$$
>  <COMPOUND>
COc1ccc2[nH]cc(/C=N/Nc3ccc(Br)cn3)c2c1

>  <DISCRETE_LABEL>
no (0)

$$$$

// query A record lists `C=CC(=O)Nc1ccc(C(=O)/C=C/c2ccc(N(C)CCF)cc2)c(O)c1` . Is its growth below 40%?
// result yes (1)

// query Entry to check: `C=CCn1c(SCC(=O)Nc2ccc(C(=O)/C=C/c3ccccc3)cc2)nnc1-c1c[nH]c2ccccc12`
// result no (0)

---

System: COLO 205 colon
ASSAY: NCI-60 one-dose screen, 48 h
EXPERIMENTAL_CONDITIONS: 10 µM
This is part of a sample that, as a whole, favours compounds with a hit. Of some 83,000 tested, about 20% had one in any assay. Active and inactive are the calls of the source. The calls were made as follows: active = growth percent below 10; inactive = the rest.
Could you please pick one outcome from this set? active, inactive

Field: example entries. Status: answers known.
>  <CHEMICAL_SMILES>
COc1cccc(-c2ccc(/C=N/NC(=O)c3[nH]c4ccc(Br)cc4c3-c3ccccc3)o2)c1

>  <DISCRETE_LABEL>
active

$$$$
>  <CHEMICAL_SMILES>
COc1cc(/C=C/C(=O)c2ccc(NC(=O)CSc3nnc(-c4c[nH]c5ccccc45)n3-c3ccccc3)cc2)cc(OC)c1OC

>  <DISCRETE_LABEL>
inactive

$$$$
>  <CHEMICAL_SMILES>
CC(=O)Nc1ccc(-n2cnc3cc(-c4ccc(O)cc4)ccc32)cc1F

>  <DISCRETE_LABEL>
active

$$$$
>  <CHEMICAL_SMILES>
N#C/C(=C\c1ccc(N(c2ccccc2)c2ccccc2)cc1)C(N)=O

>  <DISCRETE_LABEL>
inactive

$$$$
>  <CHEMICAL_SMILES>
Cc1ccc(-c2nc(Nc3ccc(S(N)(=O)=O)cc3)c3ccccc3n2)cc1

>  <DISCRETE_LABEL>
inactive

$$$$
>  <CHEMICAL_SMILES>
CC1(C)CC[C@]2(C(=O)N3CCOCC3)CC[C@]3(C)C(=CC[C@@H]4[C@@]5(C)CC[C@H](NCO)C(C)(C)[C@@H]5CC[C@]43C)[C@H]2C1

>  <DISCRETE_LABEL>
active

$$$$
>  <CHEMICAL_SMILES>
CS(=O)(=O)Nc1ccc(-c2ccc3c(c2)ncn3-c2ccc(NC(=O)Nc3ccc(Cl)c(C(F)(F)F)c3)cc2)cc1

>  <DISCRETE_LABEL>
active

$$$$

// query Please share the test call associated with `CCCCSc1nc(Nc2ccc(/C(C)=N/NC(N)=S)cc2)c(C#N)c(-c2ccc(OC)cc2)n1` .
// result inactive
